Just for reference, patent US7781454B2 is where these values come from.

- assay_system: mutant HIV reverse transcriptase (Y181C mutation) (Human immunodeficiency virus type 1 group M subtype B, UniProt P04585, Y768C)
- Construct: against mutant HIV reverse transcriptase; made in house
- assay_text: ECL assay for inhibition of mutant HIV reverse transcriptase (Y181C)
- Assay type: biochemical
- recorded_conditions: Y181C mutant RT; read-out: ECL Assay (Y181C) IC50
- Procedure: 100 μL reaction mixtures were initiated with a combination of primer-template substrate ([…]) and dNTPs (0.6 μM dNTPs, 1.25 μM BrdUTP). […] A mixture of detection buffer containing ruthenylated anti-BrdU antibody and streptavidin coated magnetic beads were added to the plate and incubated at room temperature for 1.5 hours prior to quantification via electrochemiluminescence instrument. […]
pIC50: −log10 of the molar value.
experimental_endpoint: pIC50

>>> numeric_readout("N#Cc1cc(Cl)cc(Oc2c(Cl)ccc3c2nnn3CCO)c1")
7.11
>>> numeric_readout("N#Cc1cc(Cl)cc(Oc2c(Cl)ccc3c2c(Cl)nn3Cc2n[nH]c3ncccc23)c1")
7.60
>>> numeric_readout("N#Cc1cc(C#N)cc(Oc2c(Cl)ccc3c2nnn3Cc2n[nH]c3ncccc23)c1")
8.89
>>> numeric_readout("N#Cc1cc(Cl)cc(Oc2c(Cl)ccc3nn(Cc4n[nH]c5ncccc45)nc23)c1Cl")
8.60
